EXPERIMENT NOTES: Pharmacokinetic assay in adult beagles (IV 5 mg/kg, PO 10 mg/kg)
Assay type: in vivo
DETAILS: both sexes, beagle, dog, plasma, IV 5 mg/kg, average, read-out: AUCINF—obs
REPORTED PROPERTY: AUC(0-inf) (ng·h/mL)
Write down the numeric answer in ng·h/mL and omit the unit.

Tell me its AUC(0-inf) given `N#CC[C@H](C1CCCC1)n1cc(-c2ncnc3[nH]ccc23)c(N)n1` as the entry. 9850

----------
EXPERIMENT NOTES: Pharmacokinetic assay in adult beagles (IV 5 mg/kg, PO 10 mg/kg)
Type: in vivo
DETAILS: beagle, dog, plasma, IV 5 mg/kg, male, read-out: AUCINF—obs
REPORTED PROPERTY: AUC(0-inf) (ng·h/mL)
Answer with a number only, understood to be in ng·h/mL.

Read the entry `N#CC[C@H](C1CCCC1)n1cc(-c2ncnc3[nH]ccc23)c(N)n1` and write its reported AUC(0-inf). 8190
